// protein stability index lookup, one value per entry
B1: C8orf76 (parent)
chain: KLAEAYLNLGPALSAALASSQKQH

Variants of: B1
Assay: protein stability index of a GFP-peptide fusion (GPS, HEK-293T) (PSI 1-6); higher = more stable;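 also: lentivirally expressed fusions sorted by FACS into six bins by GFP to DsRed ratio, PSI derived from sequencing read proportions per bin multiplied by bin number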
Details: c terminus: a fixed tail appended
endpoint-label: protein stability index

input-sequence: KLAEAYLNLGPALSAALASSRKQH
measured-result: 3.07

input-sequence: KLAEAYLNLGPALGAALASSQKQH
measured-result: 2.12

input-sequence: KLAEAYLKLGPALSAALASSQKQH
measured-result: 1.33

input-sequence: KLAEAYHNLGPALSAALASSQKQH
measured-result: 1.94

input-sequence: KLAEAYLNLGPALSAALASSQKVH
measured-result: 2.9

input-sequence: KYAEAYLNLGPALSAALASSQKQH
measured-result: 1.97

input-sequence: KLAEAYLNLGPALSAALASRQKQH
measured-result: 2.13

input-sequence: KGAEAYLNLGPALSAALASSQKQH
measured-result: 2.36

input-sequence: KTAEAYLNLGPALSAALASSQKQH
measured-result: 2.8

input-sequence: KLAEAYLNLGPALSAALASSQKFH
measured-result: 2.92

input-sequence: KLAEAYLNLGPALSDALASSQKQH
measured-result: 2.32

input-sequence: KLAEAYSNLGPALSAALASSQKQH
measured-result: 2.21

input-sequence: KLAEAYLNLGPALSAAHASSQKQH
measured-result: 2.17

input-sequence: KLAEAYLNLGPYLSAALASSQKQH
measured-result: 2.82

input-sequence: KLAEAYLNLVPALSAALASSQKQH
measured-result: 2.73

input-sequence: KLAEAYINLGPALSAALASSQKQH
measured-result: 2.59

input-sequence: KLAEAYLNLGPALSADLASSQKQH
measured-result: 2.18

input-sequence: KLAEAYLNLGPALSAALASSQKQY
measured-result: 2.56

input-sequence: KLAEAYLNLGPALSAALASSQKQR
measured-result: 3

input-sequence: KLAEAYLNLGPALSAALASSFKQH
measured-result: 2.97

input-sequence: ALAEAYLNLGPALSAALASSQKQH
measured-result: 2.64

input-sequence: KLAEAYLNLGPALSAALASSQKQP
measured-result: 2.62
